Reported activation values follow for various compounds
Biological target: Troponin I, cardiac muscle (Homo sapiens) + Troponin T, cardiac muscle (Homo sapiens) + Troponin C, slow skeletal and cardiac muscles (Homo sapiens) (UniProt P19429+P45379+P63316)
Assay: cardiac RTF calcium sensitivity activators, confirmation, biochemical, IANBD-TnC fluorescence, triplicate (AID 504383);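 further: 0% = DMSO at 0.472 mM calcium and 100% = DMSO at 2.9 mM calcium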
Details: IANBD-labeled cardiac RTF, Ca2+ sensitivity fluorescence; at 7.2 µM; active compounds read high; scaled from EC20 to saturating calcium; tested at EC20 calcium, 0.472 mM
Out of some 2,500 compounds screened, about 1,200 (48%) were called active. So high a share suggests a set chosen from earlier hits. The list shows a part of the results.
quantity: activation (%)

[[record]]
compound = "CC(=O)c1ccc2c(c1)c(C#N)c1ccccc1[n+]2[O-]"
quantity = "activation"
units_text = "%"
numeric_readout = 174

[[record]]
compound = "CCc1ccc(/C=C2\\Oc3c(ccc(O)c3CN3CCN(C)CC3)C2=O)cc1"
quantity = "activation"
units_text = "%"
numeric_readout = 8.07

[[record]]
compound = "CCOC(=O)CC1=NS(=O)(=O)c2ccccc2N1"
quantity = "activation"
units_text = "%"
numeric_readout = 9.51

[[record]]
compound = "Cc1cccn2c(=O)c3cc(C#N)c(=NC(=O)c4cccs4)n(CCCOC(C)C)c3nc12"
quantity = "activation"
units_text = "%"
numeric_readout = 4.3

[[record]]
compound = "CCn1c(O)c(/C=N/N=C/c2ccccc2)c2ccc(C3=NNC(=O)CC3)cc21"
quantity = "activation"
units_text = "%"
numeric_readout = 10.2

[[record]]
compound = "CCn1c(O)c(/C=N/N=C/c2ccc(OC)cc2)c2cc(C3=NNC(=O)CC3)ccc21"
quantity = "activation"
units_text = "%"
numeric_readout = 20.9

[[record]]
compound = "CCC(C)[C@H](NC(=O)N1CCC(C)CC1)C(=O)OC (stereo partly specified)"
quantity = "activation"
units_text = "%"
numeric_readout = 11.1

[[record]]
compound = "CCOCCCn1c(=NC(=O)c2cccs2)c(C#N)cc2c(=O)n3cccc(C)c3nc21"
quantity = "activation"
units_text = "%"
numeric_readout = 19

[[record]]
compound = "O=C(N/N=C/c1c(O)n(-c2ccc(Cl)cn2)c(=O)c2ccccc12)c1ccncc1"
quantity = "activation"
units_text = "%"
numeric_readout = 14.8

[[record]]
compound = "COC(=O)C1=C(C(=O)OC)[C@@H]2Nc3ccccc3[C@@]23C[C@@H](C(=O)OC)N(C(=O)c2cccs2)C3=N1"
quantity = "activation"
units_text = "%"
numeric_readout = 36.8

[[record]]
compound = "O=C(CSC1=NS(=O)(=O)c2ccccc2N1)N1CCCCC1"
quantity = "activation"
units_text = "%"
numeric_readout = 68.3

[[record]]
compound = "Cc1ccccc1S(=O)(=O)Cc1ccc(C(=O)NCCN(C)Cc2ccccc2)o1"
quantity = "activation"
units_text = "%"
numeric_readout = 28.6

[[record]]
compound = "CCCCC(=O)Nc1ccc(C(=O)Nc2ccc(OC)cc2[N+](=O)[O-])cc1"
quantity = "activation"
units_text = "%"
numeric_readout = 13.3

[[record]]
compound = "C[C@@H]1C=C(C(=O)N2CCOCC2)O[C@H](OCc2ccc(CO)cc2)C1"
quantity = "activation"
units_text = "%"
numeric_readout = 6.41

[[record]]
compound = "CCN1CCN(Cc2c(O)ccc3c2O/C(=C\\c2ccc(C)cc2)C3=O)CC1"
quantity = "activation"
units_text = "%"
numeric_readout = 5.39

[[record]]
compound = "Cc1ccc(S(=O)(=O)NC(C)(C)CN2CCC(Cc3ccccc3)CC2)cc1"
quantity = "activation"
units_text = "%"
numeric_readout = 21.5

[[record]]
compound = "CCCCN(Cc1ccccc1)S(=O)(=O)c1ccc2c(c1)n(C)c(=O)c(=O)n2C"
quantity = "activation"
units_text = "%"
numeric_readout = 2.32

[[record]]
compound = "CN(C)Cc1c(O)ccc2c1O/C(=C\\C=C\\c1ccccc1)C2=O"
quantity = "activation"
units_text = "%"
numeric_readout = 6.64

[[record]]
compound = "CCCNS(=O)(=O)c1ccc2c(c1)n(C)c(=O)n2C"
quantity = "activation"
units_text = "%"
numeric_readout = 12.4

[[record]]
compound = "COc1ccccc1/C=C/C=C1\\Oc2c(ccc(O)c2CN(C)C)C1=O"
quantity = "activation"
units_text = "%"
numeric_readout = 24.3

[[record]]
compound = "CCOCCCNS(=O)(=O)c1ccc(NC(=O)c2ccc(OC)c([N+](=O)[O-])c2)cc1"
quantity = "activation"
units_text = "%"
numeric_readout = 9.02

